These measurements were taken from patent US9861099B2.

# Test system: Venturia inaequalis
# experiment: Apple scab (AS) control test
# Assay type: in vivo
# particulars: Table 9: monosaccharide 10% liquid preparation, no assistant, 10-fold dilution (monosaccharide 1%)

[
  {
    "compound": "OC[C@H]1OC(O)[C@H](O)[C@H](O)[C@@H]1O (stereo partly shown)",
    "test.target": "Venturia inaequalis",
    "preventive value AS": "(66)"
  },
  {
    "compound": "O=C(CO)[C@H](O)[C@H](O)[C@H](O)CO",
    "test.target": "Venturia inaequalis",
    "preventive value AS": "(50)"
  },
  {
    "compound": "O=C(CO)[C@H](O)[C@@H](O)[C@H](O)CO",
    "test.target": "Venturia inaequalis",
    "preventive value AS": "(33)"
  },
  {
    "compound": "O=C[C@H](O)[C@@H](O)[C@@H](O)[C@H](O)CO",
    "test.target": "Venturia inaequalis",
    "preventive value AS": "(66)"
  }
]

* * *

# Tested on: Botrytis cinerea
# experiment: Tomato gray mold (GM) control test
# Type: in vivo
# particulars: Table 9: monosaccharide 10% liquid preparation, no assistant, 10-fold dilution (monosaccharide 1%)
measured.endpoint: preventive value GM

The following molecules have reported results that may help.
[
  {
    "molecule": "O=C(CO)[C@H](O)[C@@H](O)[C@H](O)CO",
    "measured.endpoint": "preventive value GM",
    "result": "(33)"
  },
  {
    "molecule": "O=C[C@H](O)[C@@H](O)[C@@H](O)[C@H](O)CO",
    "measured.endpoint": "preventive value GM",
    "result": "(33)"
  },
  {
    "molecule": "O=C(CO)[C@H](O)[C@@H](O)[C@@H](O)CO",
    "measured.endpoint": "preventive value GM",
    "result": "(40)"
  },
  {
    "molecule": "O=C(CO)[C@H](O)[C@H](O)[C@H](O)CO",
    "measured.endpoint": "preventive value GM",
    "result": "(50)"
  }
]

Q: Output preventive value GM of OC[C@H]1OC(O)[C@H](O)[C@H](O)[C@@H]1O (some centres unmarked)
Result: (33)
